- MEASURED ON: SARS-COV-2 RBD extracellular domain expressed with a C-terminal mouse IgG2a Fc (SARS-CoV-2)
- METHOD: Biacore SPR, mAb captured on anti-hFc, 25 C
RECORDED METRIC: log10 Kd (log10 of the value in nM)

• mAb14232 (antibody, V domains shown) VH: QITLKESGPTLVKPTQTLTLTCTFSGFSLSASGVGVGWIRQPPGKALEWLALIYWDDDKRYSPSLKSRLTITKDTSKNQVVLTMTNMDPVDTATYYCAQHKVATIFDYWGQGTLVTVSS VL: QSALTQPPSASGSPGQSVTISCTATSSDVGNYNYVSWYQQHPGKAPKLMIYEVTKRPSGVPDRFSGSKSGNTASLTVSGLQAEDEADYYCSSYAGSWGVFGGGTKLTVLG = -0.06
• mAb14289 (antibody, V domains shown) VH: QVQLVQSGPEVKKPGASVKVSCKASGYTFTSYAISWVRQAPGQGLEWMGWISAYNGNTNYAQKLQGRVTMTTDTFTSTAYMELRSLRSDDTAVYYCAVPADHITFDYWGQGTLVTVSS VL: EIVLTQSPGTLSLSPGERATLSCRASQSVSSYLAWYQQKPGQAPRLLIHGASSRATGIPDRFSGSGSGTDFTLTISRLEPEDFAVYYCQQYGSSFLTFGGGTKVEIKR = -1.20
• mAb14257 (antibody, V domains shown) VH: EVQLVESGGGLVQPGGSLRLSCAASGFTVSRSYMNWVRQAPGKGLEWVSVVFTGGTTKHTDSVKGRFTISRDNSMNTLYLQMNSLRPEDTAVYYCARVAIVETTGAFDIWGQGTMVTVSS VL: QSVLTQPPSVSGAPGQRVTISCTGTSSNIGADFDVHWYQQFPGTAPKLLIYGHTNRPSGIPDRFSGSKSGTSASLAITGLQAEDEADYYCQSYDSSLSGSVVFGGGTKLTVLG = -1.04
• mAb15166 (antibody, V domains shown) VH: EVQLVESGGGLVQPGGSLRLSCAASGFTVTSNYMSWVRQAPGKGLEWVSAIYSGESTYYADSVKGRFTISRDSSKNTLYLQMNSLRVEDTAVYYCASIHDYSNYVGGFDPWGQGTLVTVSS VL: QSALTQPASVSGSPGQSITISCTGPSSDFGSYNLVSWYQQHPGKAPKLMIYEGTKRPSGVSNRFSGSKSGNTASLTISGLQAEDEADYYCSSYAGSSTWVFGGGTKLTVLG = -1.80
• mAb13458 (antibody, V domains shown) VH: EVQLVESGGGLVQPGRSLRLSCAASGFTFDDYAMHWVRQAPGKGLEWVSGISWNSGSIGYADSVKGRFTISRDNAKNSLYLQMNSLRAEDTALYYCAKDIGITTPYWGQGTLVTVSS VL: AIQMTQSPSSLSASVGDRVTITCRASQDIRNDLGWYQQKPGKAPKLLIYSASSLQTGVPSRFSGSGSGTDFTLTISSLHPEDFATYYCLQDYWYTWTFGQGTKVEIKR = -1.19
• mAb14281 (antibody, V domains shown) VH: QVQLVQSGADVKKPGASVKVSCKTSGYIFTGYYIHWVRQAPGQGLEWMGWINPNSGGTNSAQKFQGRVTMTRDTSISTVYMELSRLRSDDTAVYYCAKSNSFSVLDYNFDYWGQGTLVTVSS VL: SSELTQDPAVSVALGQTVRITCQGDSLRSYYASWYQQKPGQAPVLVIYDKNNRPSGIPDRFSGSSSGNTASLTITGAQAEDEADYYCNSRDSSRNHLVVFGGGTKLTVLG = -0.84
• mAb14312 (antibody, V domains shown) VH: EVQLVESGGGLVQPGGSLRLSCAASGFTVSRSYMTWVRQAPGKGLEWVSVIFTGGRTDHADSVKGRFTISRHNSKNTLYLQMNSLRTEDTAVYYCARVAIVGATGAFDIWGQGTMVTVSS VL: QSVLTQPPSVSGAPGQRVTISCTGSSSNIGAGDDVHWYQQLPGTAPKLLIYGNSNRPSGVPDRFSGSKSGTSASLAITGLQAEDEADYYCQSYDSSLSGSVVFGGGTKLTVLG = -1.48
• mAb14282 (antibody, V domains shown) VH: QVQLVQSGAEVKKPGASVKVSCKASGYIFTDHYMHWVRQAPGQGLEWMGWINPNSGATNYAQNFQGRVTMTRDTSIITVYMELSRLRSDDTAVYYCARDSSPYMIRYTMDVWGQGTTITVSS VL: QSALTQPASVSGSPGQSITISCTGTSSDVGSYNLVSWYQQHPGKAPKLMIYELTKRPSGVSNRFSGSKSGNTASLTISGLQAEDEADYYCSSYRGSVTDVVFGGGTKLTVLG = -0.73
